- Experimental system: Left-right determination factor 2 (Homo sapiens)
- Method description: small molecules binding LEFTY2 protein – biochemical, small-molecule microarray, 635 nm fluorescence scan, primary screen (AID 1110)
- Conditions used: higher = more signal
Here, each record is paired with measured composite z-score data.

Compound | Experimental system | composite z-score
COCCOC(=O)N1C(=O)[C@@]2(c3cc(C#CC4=CCCCC4)ccc31)[C@H](c1ccc(OCCO)cc1)N1[C@H](c3ccccc3)[C@H](c3ccccc3)OC(=O)[C@H]1[C@@H]2C(=O)Nc1nc2ccccc2s1 | Left-right determination factor 2 (Homo sapiens) | 0.172
COc1cc2c(cc1O)C(c1ccc(CN3CCCC3)cc1)N(Cc1sc3ccccc3c1Cl)CC2 (stereo not drawn) | Left-right determination factor 2 (Homo sapiens) | 0.82
COc1ccc([Si](C)(C)[C@H]2[C@H](CCO)O[C@@]3(C(=O)N(Cc4cccc(N5C(=O)c6cccc7cccc5c67)c4)c4ccccc43)[C@@H]2C)cc1 | Left-right determination factor 2 (Homo sapiens) | -0.652
